In vitro activity relative to native peptide (%), vs. Glucagon (cAMP EC50) reference
# EXPERIMENTAL SYSTEM: human GCG receptor (human, UniProt P47871 26-477)
# Sequence (P47871 26-477): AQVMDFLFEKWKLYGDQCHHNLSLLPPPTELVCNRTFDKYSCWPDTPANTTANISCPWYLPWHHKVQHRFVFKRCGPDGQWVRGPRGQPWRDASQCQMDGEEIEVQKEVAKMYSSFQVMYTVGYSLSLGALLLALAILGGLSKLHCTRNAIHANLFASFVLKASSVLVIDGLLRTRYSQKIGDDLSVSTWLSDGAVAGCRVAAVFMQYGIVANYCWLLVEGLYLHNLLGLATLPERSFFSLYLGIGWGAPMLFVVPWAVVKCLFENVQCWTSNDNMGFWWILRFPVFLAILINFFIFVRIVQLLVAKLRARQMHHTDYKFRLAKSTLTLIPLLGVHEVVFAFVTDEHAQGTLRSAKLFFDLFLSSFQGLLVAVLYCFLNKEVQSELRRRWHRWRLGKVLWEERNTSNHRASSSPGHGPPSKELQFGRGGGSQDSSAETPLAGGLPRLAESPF
# PROTOCOL: cell-based or functional assay
Positions of bridges follow the written chain, without caps; N, C: chain ends. Non-standard residues stand in square brackets, D forms with d. No end group written: not given here. *: point of attachment. Acetyl(2-(4-imidazolyl)) = O=C(Cc1c[nH]cn1)*; Aib = CC(C)(N)C(=O)O
Kindly provide the numeric value in % only, without the unit symbol.

BINDER	VALUE OBSERVED
H[Aib]QGTFTSDYSKYLDERACQDFVQWLLDQGGPSSGAPPPS [trigonal agonist of SEQ ID NO: 27]	0.8
{Acetyl(2-(4-imidazolyl))}-[Aib]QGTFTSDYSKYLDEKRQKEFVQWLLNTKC (bridge 15-19) [trigonal agonist of SEQ ID NO: 88]	0.3
Y[Aib]QGTFTSDYSKYLDECRAKDFVQWLLDHHPSSGQPPPS (bridge 16-20) [trigonal agonist of SEQ ID NO: 66]	172
Y[Aib]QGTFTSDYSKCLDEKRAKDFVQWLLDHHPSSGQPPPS (bridge 16-20) [trigonal agonist of SEQ ID NO: 70]	71.3
Y[Aib]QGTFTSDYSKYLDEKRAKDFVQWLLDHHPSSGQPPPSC (bridge 16-20) [trigonal agonist of SEQ ID NO: 76]	47.6

Recorded In vitro activity relative to native peptide (%), vs. Glucagon (cAMP EC50) for H[Aib]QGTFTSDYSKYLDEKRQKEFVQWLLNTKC (bridge 16-20) [trigonal agonist of SEQ ID NO: 58] , please?
2.6

Recorded In vitro activity relative to native peptide (%), vs. Glucagon (cAMP EC50) for {Acetyl(2-(4-imidazolyl))}-[Aib]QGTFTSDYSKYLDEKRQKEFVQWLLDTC (bridge 15-19) [trigonal agonist of SEQ ID NO: 82] , please?
1.1

Recorded In vitro activity relative to native peptide (%), vs. Glucagon (cAMP EC50) for Y[Aib]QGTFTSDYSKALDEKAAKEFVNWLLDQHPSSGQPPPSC (bridge 16-20) [trigonal agonist of SEQ ID NO: 101] , please?
13.9

Recorded In vitro activity relative to native peptide (%), vs. Glucagon (cAMP EC50) for H[Aib]QGTFTSDYSKYLDEKAAKEFVQWLLNTC (bridge 16-20) [trigonal agonist of SEQ ID NO: 29] , please?
6

Recorded In vitro activity relative to native peptide (%), vs. Glucagon (cAMP EC50) for Y[Aib]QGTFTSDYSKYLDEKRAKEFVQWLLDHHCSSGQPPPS (bridge 16-20) [trigonal agonist of SEQ ID NO: 43] , please?
88.4

Recorded In vitro activity relative to native peptide (%), vs. Glucagon (cAMP EC50) for H[Aib]QGTFTSDYSKYLDGQHAQCFVAWLLAGGGPSSGAPPPS [trigonal agonist of SEQ ID NO: 39] , please?
0.53

src = patent US20230390362A1
